# assayComment: NCI Yeast Anticancer Drug Screen. Data for the mlh1 strain (AID 171);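 also: 0% = growth of vehicle-treated control cultures of the same strain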
# experimentalParameters: S. cerevisiae mlh1 strain growth inhibition; at 3.7 µM; hits give high values
About 79,000 compounds went through this panel and 15% of them were active in at least one assay; those are over-represented in the sample as a whole.
assayReadout: growth inhibition (%)
All answers are understood in %, so give the number only.

> print(dat)
                                   compound       assayreadout  reported
1  O=C1NC(=S)NC(=O)C1=Cc1ccc([N+](=O)[O-])o1  growth inhibition        33
2   Cc1nc2ccccc2cc1C[N+]12CN3CN(CN(C3)C1)C2  growth inhibition         1
3  CCC1(O)C(=O)OCc2c1cc1n(c2=O)Cc2cc3cc(Cl)ccc3nc2-1 (stereo unspecified)  growth inhibition         8
4  COC1CC(CC2CCC(C)C(C(C)C(=O)O)O2)OC2(OC(C)(C3CCC(C)(C4OC(C5OC(O)(CO)C(C)CC5C)CC4C)O3)CC2C)C1C (stereo unspecified)  growth inhibition       -15
5  CC1CCCN(CCc2ccccc2)CC1 (stereo unspecified)  growth inhibition         4

# input Return growth inhibition for the following compound: `CN(CCc1ccc(Br)cc1)CCN1CCCCC1`
# output 22

# input Give the reported value of growth inhibition for this record: `CCOP(=S)(S)OCC.[Pd]`
# output 56

# input Find the measured growth inhibition of `Nc1ccc(Cl)cc1C(=O)c1ccccc1` and report it.
# output -33

# input Give the reported growth inhibition for this compound. `Oc1ccc(Cl)cc1Cc1ccccc1`
# output -9

# input Provide growth inhibition value for the following compound: `O=Cc1ccc(C(F)(F)F)cc1.[C-]#[O+].[C-]#[O+].[C-]#[O+].[Cr]`
# output -4

# input Supply recorded growth inhibition for `O=[N+]([O-])c1cc(S(=O)(=O)F)ccc1Cl` here.
# output 19
